- assay system: Metabotropic glutamate receptor 5 (Rattus norvegicus)
- Sequence (P31424 whole entry, looked up): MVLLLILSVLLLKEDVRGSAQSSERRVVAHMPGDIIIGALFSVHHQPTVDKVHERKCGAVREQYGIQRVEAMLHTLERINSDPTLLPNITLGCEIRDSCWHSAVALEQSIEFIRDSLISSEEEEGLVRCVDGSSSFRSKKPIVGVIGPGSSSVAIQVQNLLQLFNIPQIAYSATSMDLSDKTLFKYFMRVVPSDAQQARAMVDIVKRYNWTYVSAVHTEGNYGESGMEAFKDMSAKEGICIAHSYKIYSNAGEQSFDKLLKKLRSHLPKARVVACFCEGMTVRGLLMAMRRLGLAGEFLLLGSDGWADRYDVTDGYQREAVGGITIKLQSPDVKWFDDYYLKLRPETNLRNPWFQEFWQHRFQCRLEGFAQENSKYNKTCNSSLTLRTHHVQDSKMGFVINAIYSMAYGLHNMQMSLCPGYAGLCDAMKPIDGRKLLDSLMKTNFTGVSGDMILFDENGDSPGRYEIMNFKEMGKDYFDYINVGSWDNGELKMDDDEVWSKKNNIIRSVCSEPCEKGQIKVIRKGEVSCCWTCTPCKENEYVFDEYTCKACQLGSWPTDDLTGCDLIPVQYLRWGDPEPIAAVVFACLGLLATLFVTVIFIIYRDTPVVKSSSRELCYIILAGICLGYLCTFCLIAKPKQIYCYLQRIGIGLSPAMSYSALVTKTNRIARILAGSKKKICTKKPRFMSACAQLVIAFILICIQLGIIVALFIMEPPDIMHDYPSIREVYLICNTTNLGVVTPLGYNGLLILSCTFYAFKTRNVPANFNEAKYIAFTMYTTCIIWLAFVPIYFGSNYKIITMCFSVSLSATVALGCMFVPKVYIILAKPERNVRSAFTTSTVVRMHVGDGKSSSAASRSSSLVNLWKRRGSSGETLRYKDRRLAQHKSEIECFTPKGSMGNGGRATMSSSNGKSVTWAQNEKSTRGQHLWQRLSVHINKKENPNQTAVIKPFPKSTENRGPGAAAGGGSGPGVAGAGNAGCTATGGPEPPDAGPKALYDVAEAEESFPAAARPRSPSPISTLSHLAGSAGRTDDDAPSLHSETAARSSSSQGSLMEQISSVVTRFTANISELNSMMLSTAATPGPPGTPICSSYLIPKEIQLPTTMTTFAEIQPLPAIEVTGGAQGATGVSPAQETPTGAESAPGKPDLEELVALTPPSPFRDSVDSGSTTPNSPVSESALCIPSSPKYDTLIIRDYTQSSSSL
- assay overview: Negative allosteric modulator activity at mGluR5 receptor expressed in HEK293A cells assessed as inhibition of glutamate-induced calcium flux preincubated for 140 secs before glutamate challenge by calcium fluorescence assay
- Format: functional, cell-based, HEK293-A
Entries annotated with measured pIC50
When answering, recall that pIC50 equals minus log10 of the concentration in mol/L, and write that number alone.

Illustrative cases are given below, each with its answer.
Cc1cccc(-c2noc([C@H]3CCCCN3C(=O)C3CCC3)n2)c1 ... 6.52
O=C(C1CCC1)N1CCC[C@@H](c2nc(-c3ccccn3)no2)C1 ... 5.00
Cc1cccc(-c2noc([C@H]3CCCN(C(=O)C4CCC4)C3)n2)c1 ... 6.15
Cc1cccc(-c2noc(C3CCCN3C(=O)C3CCC3)n2)c1 (racemic) ... 5.62
O=C(C1CCC1)N1CCC[C@H](c2nc(-c3cccc(Cl)c3)no2)C1 ... 6.70
Cc1cccc(-c2noc([C@H]3CCCCN3C(=O)c3ccc(F)c(F)c3)n2)c1 ... 5.00
Cc1cccc(-c2noc([C@H]3CCCCN3C(=O)C3CCCCC3)n2)c1 ... 5.60

Next item in the queue.
The recorded pIC50 for entry Cc1cccc(-c2noc([C@H]3CCCCN3C(=O)c3cccc(F)c3)n2)c1 equals 5.33
